System under test: T1, IL-11 protein (UniProt P20809 22-199, limits assumed)
T1 construct: also called IL-11 antigen
T1 sequence (looked up): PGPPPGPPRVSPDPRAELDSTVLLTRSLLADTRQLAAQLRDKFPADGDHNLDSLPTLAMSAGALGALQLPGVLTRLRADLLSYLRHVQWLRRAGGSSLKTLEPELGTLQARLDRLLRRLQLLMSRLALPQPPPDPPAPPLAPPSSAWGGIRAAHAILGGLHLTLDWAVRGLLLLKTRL
Method notes: SPR (Biacore), antibody captured, 400 nM IL-11 as analyte
Observable: koff (s⁻¹)
Number only, in s⁻¹; omit the unit.

Below are worked cases with known answers.
Binder	koff (s⁻¹)
VH3 + VL3-scFv (scFv, V domains shown, Humanized 5-20E11-5F2; CHO supernatant; Called scFv, but heavy and light vectors were co-transfected) VH: QVQLVQSGAEVKKPGASVKVSCKASDYTFTNYWLGWVRQAPGQGLEWIGHIYPGGGYTNYNEKFKGRATLTADTSTSTVYMELSSLRSEDTAVYFCARVRSGNDALDFWGQGTLVTVSS VL: EIVLTQSPATLSLSPGERATLSCRASESVDEYGISFMNWFQQKPGQAPRLLIYSASNQGSGIPARFSGSGSGTDFTLTISSLEPEDFAVYFCQQSKEVPWTFGGGTKLEIK	0.000464
VH4 + VL3-scFv (scFv, V domains shown, Humanized 5-20E11-5F2; CHO supernatant; Called scFv, but heavy and light vectors were co-transfected) VH: QVQLVQSGAEVKKPGASVKVSCKASDYTFTNYWLGWVRQAPGHGLEWIGHIYPGGGYTNYNEKFKGRATLTADTSTSTVYMELSSLRSEDTAVYFCARVRSGNDALDFWGQGTLVTVSS VL: EIVLTQSPATLSLSPGERATLSCRASESVDEYGISFMNWFQQKPGQAPRLLIYSASNQGSGIPARFSGSGSGTDFTLTISSLEPEDFAVYFCQQSKEVPWTFGGGTKLEIK	0.000516
VH4 + VL4-scFv (scFv, V domains shown, Humanized 5-20E11-5F2; CHO supernatant; Called scFv, but heavy and light vectors were co-transfected) VH: QVQLVQSGAEVKKPGASVKVSCKASDYTFTNYWLGWVRQAPGHGLEWIGHIYPGGGYTNYNEKFKGRATLTADTSTSTVYMELSSLRSEDTAVYFCARVRSGNDALDFWGQGTLVTVSS VL: EIVLTQSPATLSLSPGERATLSCRASESVDEYGISFMNWFQQKPGQAPRLLIYSASNQGSGIPARFSGSGSGTDFTLTISSLEPEDFAMYFCQQSKEVPWTFGGGTKLEIK	0.000481

**Q:** Can you share its koff? I mean this binder: VH3 + VL2-scFv (scFv, V domains shown, Humanized 5-20E11-5F2; CHO supernatant; Called scFv, but heavy and light vectors were co-transfected) VH: QVQLVQSGAEVKKPGASVKVSCKASDYTFTNYWLGWVRQAPGQGLEWIGHIYPGGGYTNYNEKFKGRATLTADTSTSTVYMELSSLRSEDTAVYFCARVRSGNDALDFWGQGTLVTVSS VL: EIVLTQSPATLSLSPGERATLSCRASESVDEYGISFMNWYQQKPGQAPRLLIYSASNQGSGIPARFSGSGSGTDFTLTISSLEPEDFAVYFCQQSKEVPWTFGGGTKLEIK
**A:** 0.00068

**Q:** How about this binder: VH3 + VL1-scFv (scFv, V domains shown, Humanized 5-20E11-5F2; CHO supernatant; Called scFv, but heavy and light vectors were co-transfected) VH: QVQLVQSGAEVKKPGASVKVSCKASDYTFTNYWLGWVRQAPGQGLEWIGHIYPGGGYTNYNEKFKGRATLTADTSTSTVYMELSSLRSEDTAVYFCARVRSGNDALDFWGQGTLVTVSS VL: EIVLTQSPATLSLSPGERATLSCRASESVDEYGISFMNWYQQKPGQAPRLLIYSASNQGSGIPARFSGSGSGTDFTLTISSLEPEDFAVYYCQQSKEVPWTFGGGTKLEIK
**A:** 0.001
